Molecular target: UniProtKB Q00535
Sequence (Q00535 whole entry): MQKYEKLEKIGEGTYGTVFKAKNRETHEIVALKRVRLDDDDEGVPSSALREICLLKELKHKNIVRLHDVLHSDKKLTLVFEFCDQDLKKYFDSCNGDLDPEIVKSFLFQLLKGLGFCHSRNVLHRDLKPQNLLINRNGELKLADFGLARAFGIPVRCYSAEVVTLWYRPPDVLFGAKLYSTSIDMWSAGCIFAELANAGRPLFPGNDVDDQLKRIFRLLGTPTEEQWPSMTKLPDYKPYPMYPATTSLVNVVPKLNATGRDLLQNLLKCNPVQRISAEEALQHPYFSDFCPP
METRIC_NAME: pIC50
Just so you know, pIC50 here is -log10 of the concentration in molar units; reply with that number alone.

1. c1ccc(Nc2ncc(-c3ccnc(OC4CCCCC4)n3)s2)nc1 = 7.47

Now consider the entry below.
-- ask Report value: pIC50, system: UniProtKB Q00535, compound: Cc1cc(-c2cnc(Nc3cnc(CN4CCN(C)CC4)cn3)s2)nc(OC2CCCCC2)n1
-- reply 5.52
